Assay: in vivo
Conditions: CD1 nude, mouse, 0.5 nmol/mouse, total radioactivity, Kidneys uptake

molecule	tissue uptake at 24 h [%ID/g]
Cc1ccc(CCCC(=O)NCCOCCOCCOCCOCCC(=O)NC[C@H](NC(=O)CN2CCN(CC(=O)O)CCN(CC(=O)O)CCN(CC(=O)O)CC2)C(=O)N[C@@H](CC(=O)O)C(=O)N[C@@H](CC2CCCCC2)C(=O)N[C@@H](Cc2ccccc2)C(=O)N[C@H](CO)C(=O)N[C@H](CCCNC(=N)N)C(=O)N[C@@H](Cc2ccc(O)cc2)C(=O)N[C@@H](CC(C)C)C(=O)N[C@@H](Cc2c[nH]c3ccccc23)C(=O)N[C@@H](CO)C(N)=O)cc1 [[^177Lu]Lu-uPAR-14, metal not drawn]	2
